In this section we review reported kon values for a set of binders.
- test_system: chicken IgY (chicken)
- assay_notes: BLI; Octet, SAX (streptavidin) biosensors; recombinant Fabs against IgY; KD from a kinetic 1:1 model, global fit over multiple concentrations (partial fits averaged for 3 low-affinity Fabs)
Please respond with the number in M⁻¹ s⁻¹ and leave the unit unwritten.

Worked examples, 2 binders total:
{"binder": "clone 2.1 Fab TA_26 (Fab, V domains shown) VH: EVQLQESGPSLVKPSQTLSLTCSVTGDSITSGYWNWIRKFPGNKLEYMGYISYSGSTYYNPSLKSRISITRDTSKNQYYLQLNSVTTEDTATYYCARDFDVWGAGTTVTVSS VL: DIVMTQSQKFMSTSVGDRVSVTCKASQNVGTNVAWYQQKPGQSPKALIYSASYRYSGVPDRFTGSGSGTDFTLTISNVQSEDLAEYFCQQYDSYPLTFGSGTKLEIK", "kon, M⁻¹ s⁻¹": 137000}
{"binder": "clone 2.1 Fab TA_23 (Fab, V domains shown) VH: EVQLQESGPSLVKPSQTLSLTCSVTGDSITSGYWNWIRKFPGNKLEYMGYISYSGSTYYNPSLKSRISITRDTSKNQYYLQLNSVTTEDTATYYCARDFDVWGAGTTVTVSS VL: DIVMTQSQKFMSTSVGDRVSVTCKASQNVGTNVAWYQQKPGQSPKALIYSASYRYSGVPDRFTGSGSGTDFTLTISNVQSEDLAEYFCHQYNSYPLTFGSGTKLEIK", "kon, M⁻¹ s⁻¹": 100000}

Now consider a different binder.
Task item: Could you tell me which kon is on file for 2.1^hi Fab, high-affinity variant of clone 2.1 (Fab, V domains shown) VH: EVQLQESGPSLVKPSQTLSLTCSVTGASITSGYWNWIRKFPGNRLEYMGYISYSGGTYYNPSLKSRISITRDTSKNQYYLQLNSVTTEDTATYYCARDFDVWGAGTTVTVSS VL: DIVMTQSQKFMSTSVGDRVSVTCKASQNVGTNVGWFQQKPGQSPKSLIYSASYRYSGVPDRFTGSGSGTDFTLTISNVQSEDLAEYFCHQYYSYPLTFGSGTKLEIK ?
Reply: 1.03e+06
